These entries and their values trace back to PubChem BioAssay AID248.

Test system: L1210 leukemia ip in BDF1 mice, survival T/C
RUN_DESCRIPTION: NCI In Vivo Anticancer Drug Screen. Data for tumor model L1210 Leukemia (intraperitoneal) in B6D2F1 (BDF1) mice
MEASUREMENT_CONTEXT: endpoint: mean survival time; dose: 12.5 mg/kg/injection; schedule: Q04DX003 (ip); vehicle: saline; higher = longer survival
Inconclusive results and toxic doses are left out.
# T/C values compiled below
QUANTITY: T/C

>>> result("Cc1nc(C(N)=O)c(=O)[nH]c1C")
"97 % of control"
>>> result("Cc1cc(C)[n+](C)c(C)c1")
"96 % of control"
>>> result("CC(=O)N(C)N")
"112 % of control"
>>> result("Cc1ccc(N2CCNCC2)cc1")
"93 % of control"
>>> result("CC1C[N+](C)=C2CCCCC2=C1N (stereo not given)")
"98 % of control"

###

# T/C values compiled below
Tested on: L1210 leukemia ip in BDF1 mice, survival T/C
RUN_DESCRIPTION: NCI In Vivo Anticancer Drug Screen. Data for tumor model L1210 Leukemia (intraperitoneal) in B6D2F1 (BDF1) mice
MEASUREMENT_CONTEXT: endpoint: mean survival time; dose: 200.0 mg/kg/injection; schedule: Q04DX003 (ip); vehicle: saline with Tween-80; higher = longer survival
Toxic doses and inconclusive results are not listed.
QUANTITY: T/C

>>> result("COc1ccc(N2C(=O)CCC2=O)cc1")
"92 % of control"
>>> result("O=C(/C=C/c1ccncc1)c1cccc2ccccc12")
"97 % of control"
>>> result("CCCCOC(=O)c1cocc1C(=O)OCCCC")
"104 % of control"
>>> result("CCCCSc1cc(NS(=O)(=O)c2ccccc2)ccc1NS(=O)(=O)c1ccccc1")
"93 % of control"
>>> result("CN1C(=O)NC(C)(c2cccs2)C1=O (stereo not drawn)")
"106 % of control"
>>> result("CC(=O)N=c1cc(-c2ccc(Cl)cc2)ss1")
"95 % of control"
>>> result("CC(C)=CC(=O)OC(=O)C=C(C)C")
"96 % of control"
>>> result("S=P(c1cccs1)(c1cccs1)c1cccs1")
"96 % of control"
>>> result("O=C(O)COc1cc(Cl)c(Cl)cc1Cl")
"103 % of control"
>>> result("O=C1/C(=C/c2ccccc2)CCC2CCCCC12 (stereo not drawn)")
"100 % of control"
>>> result("C[Si](C)(C)Oc1c(Cl)cc(Cl)cc1Cl")
"98 % of control"
>>> result("CC(=O)NC1C(O)C(NC(C)=O)C(OC(C)=O)C(OC(C)=O)C1OC(C)=O (stereo not drawn)")
"101 % of control"
>>> result("OC(c1ccccc1)(c1ccccc1)c1ccc(F)cc1")
"100 % of control"

###

Test system: L1210 leukemia ip in BDF1 mice, survival T/C
RUN_DESCRIPTION: NCI In Vivo Anticancer Drug Screen. Data for tumor model L1210 Leukemia (intraperitoneal) in B6D2F1 (BDF1) mice
MEASUREMENT_CONTEXT: endpoint: mean survival time; dose: 400.0 mg/kg/injection; schedule: Q01DX009 (ip); vehicle: Klucel (hydroxypropylcellulose) (HPC); higher = longer survival
Toxic doses and inconclusive results are not listed.
QUANTITY: T/C

>>> result("C(=N\\Nc1nc2ccccc2s1)/c1ccnc2ccccc12")
"96 % of control"
>>> result("CCCCOC(=O)c1ccc(NC(=O)Nc2ccc(F)c([N+](=O)[O-])c2)cc1")
"101 % of control"
>>> result("COc1ccccc1NC(=O)Nc1ccccc1C")
"94 % of control"
>>> result("Cc1cccc(Cl)c1NC(=O)Nc1onc(C)c1C")
"92 % of control"
>>> result("O=C(Cc1ccccc1)Nc1cccc(Cl)c1")
"95 % of control"
>>> result("CCCC(=O)c1c(C)cc(C)cc1C")
"97 % of control"
>>> result("COc1cc2cc(C)c(C)cc2cc1OC")
"109 % of control"
